Provenance of the data: ChEMBL document CHEMBL1201862

Tested on: IGROV-1
experiment-notes: NCI tumour cell line growth inhibition, 48 h
The source made the active and inactive calls. No stated cut-off is given here; in the data, active = GI50 up to about 1.1 µM and inactive = higher.
Please reply with one of these outcomes: t for active, f for inactive

Sample answers from the record:
{"columns": ["molecule", "class-label"],
 "data": [
  ["O=C1NC(O)c2ccccc2O1 (stereo not drawn)", "f"],
  ["O=C1c2cccc(NCCNCCO)c2C(=O)c2cccc(NCCNCCO)c21", "f"]
]}

Problem: Dear all, I need the recorded test outcome for Cc1cc(C)cc(Nc2nnc3n2S(=O)(=O)c2cc(C#N)c(Cl)cc2S3)c1 , thank you.
Solution: t

====

Tested on: NCI-H460
experiment-notes: NCI tumour cell line growth inhibition, 48 h
Calls of active or inactive are those of the source. No stated cut-off is given here; in the data, active = GI50 up to about 1.1 µM and inactive = higher.
Let's look at some molecules and their measured GI50.

Solved entries (count: 3):
{"columns": ["molecule", "endpoint-name", "experimental-value"],
 "data": [
  ["C=CC(COC(=O)C(C)(C)OC(C)=O)c1ccc(OC(=O)C(C)C)c(OC)c1 (centres undefined)", "GI50", "2.62 µM (inactive)"],
  ["CCOC(CN(C)C(=O)OCC(Cl)(Cl)Cl)OCC", "GI50", "61.5 µM (inactive)"],
  ["COc1ccc2c(c1)/c(=C/C#N)c1c3ccccc3[n+](C)n21", "GI50", "7.23 µM (inactive)"]
]}

Field: next molecule
Problem: # value lookup — system NCI-H460, readout GI50, item CCN(CC)CCNC(=O)c1ccc([N+](=O)[O-])cc1OC
Solution: > 100 µM (inactive)

====

Tested on: U-251
experiment-notes: NCI tumour cell line growth inhibition, 48 h
Active and inactive are the calls of the source. Rule as the data show it: active = GI50 up to about 1.1 µM and inactive = higher.
Would you mind answering with one of these outcomes? active, inactive

Problem: Short answer needed: outcome of this test for CCOP(=O)(OCC)/C(C#N)=C/c1cnc(-c2ccccc2)[nH]1 ?
Solution: inactive

Problem: Let us now turn to c1ccc(P(CCP(c2ccccn2)c2ccccn2)c2ccccc2)cc1
Solution: active

Problem: Same for CC(=O)OC1c2ccccc2CC2(OC(C)=O)c3ccccc3C12 (configuration not stated)
Solution: inactive

Problem: Would you mind doing O=C(CC(C(=O)c1ccc(F)cc1)c1ccsc1)c1cccs1 (configuration not stated) as well?
Solution: inactive

Problem: Quick one: OCC1OC(c2cccc3cc(O)c(O)cc23)CC1O (configuration not stated)
Solution: inactive

Problem: Likewise for O=C1CCc2cc3c(cc21)CC1(Cc2ccccc2C1)C3 ?
Solution: inactive

Problem: # iterate: O=CNc1cccc2c3c([nH]c12)CCCCCC3
Solution: inactive

Problem: Follow-up entry: CCOC(=O)C1(C#N)CC1
Solution: inactive

Problem: Same again, this time with CN(C)CCCn1c2c3ccccc3ccc2c2oc(=O)c3ccccc3c21
Solution: inactive

Problem: Next record, please: N#Cc1c(N)oc2cc3c(C#N)c(N)oc3cc12
Solution: inactive

Problem: Also COc1ccc(C2C(C#N)=C(O)NC(O)=C2C#N)cc1OC ?
Solution: inactive

Problem: How about Cc1ccc(C)c2c1C/C(=C\c1ccccc1C(=O)O)C2=O ?
Solution: inactive

Problem: Moving on to the next compound: OC1C=C2C3CN(Cc4cc5c(cc43)OCO5)[C@H]2C[C@@H]1O (some centres not stated)
Solution: inactive

Problem: Next: CC(C)(C)c1cc(-c2cc(C(C)(C)C)[nH]n2)[nH]n1
Solution: inactive

Problem: Request: CC(=O)c1[nH]c(NCc2ccccc2)c(C(=S)Nc2ccccc2)c1N
Solution: inactive

Problem: Moving on to the next compound: O=C(NCCN1CCOCC1)c1ccc(I)cc1
Solution: inactive

Problem: // query: N=CCCN(CCC=N)c1ccc(/C=C2\CN(NC(=O)c3ccc(Cl)cc3)C(c3ccccc3)=N2)cc1
Solution: inactive

Problem: Next record, please: Nc1nc(Cl)c2ncn(Cc3cccc(CCl)c3)c2n1
Solution: inactive

Problem: Lookup CCOC(=O)/C(=C\c1c(C)[nH]c2ccccc12)P(=O)(OCC)OCC
Solution: inactive

Problem: Repeat for the following compound: CCN(CC)CCCCC1CCN(CC(=O)N2c3cc(Cl)ccc3NC(=O)CC2C)CC1 (configuration not stated)
Solution: inactive

Problem: Next: N#CSC/C(Cl)=C/Cl.N#CSC/C(Cl)=C\Cl
Solution: inactive

Problem: And Nc1ccc2c(c1)NCCN2 ?
Solution: inactive
